- target: Mitogen-activated protein kinase kinase kinase 2 (Homo sapiens) (UniProt Q9Y2U5)
- method-notes: modulators of MEK5 binding to wildtype MEKK2, primary screen, biochemical, multiplex bead flow cytometry, Alexa488-MEK5 (AID 1531)
- condition-set: Alexa488-MEK5 binding to MEKK2 WT, at 10 µM, actives lie on both sides
The campaign covered roughly 290,000 compounds. About 3,300 (1.1%) were called active. Rule as the data show it: active = binding response below about 67% or above about 130%; inconclusive = no clear call, values can overlap the other calls; inactive = in between. Many of the other results were omitted from the sample, so actives are more common in it than they were.
Field 'call' accepts true (1) = active, false (0) = inactive

Solved cases (5 shown):
• Cc1ccc(-c2nc(CSCC(=O)NC3CCN(Cc4ccccc4)CC3)c(C)o2)cc1 = false (0)
• CC1(C)C=Cc2c(ccc3c2OC[C@@H](c2ccc(O)cc2O)C3)O1 = false (0)
• CCOc1ccc2nc(N(CCN(C)C)C(=O)c3ccc4ccccc4c3)sc2c1 = false (0)
• CC(=O)Nc1ccc(NC(=O)COc2ccc(-c3ccccc3)cc2)cc1 = false (0)
• COc1ccc(CCOC(=O)CNC(=O)c2ccc(Cl)cc2Cl)cc1 = false (0)

Q: Kindly provide the recorded test outcome for the following molecule: COc1cccc(CC2(CO)CCN(Cc3cnc(-c4cccc(C)c4)nc3)CC2)c1
Ans: false (0)

Q: Kindly provide the recorded test outcome for the following molecule: O=C1CCNCCN1[C@H](CO)Cc1ccccc1
Ans: false (0)

Q: Kindly provide the recorded test outcome for the following molecule: COc1ccc(SCCN2CCN(CC(C)C)CCC2=O)cc1
Ans: false (0)

Q: Kindly provide the recorded test outcome for the following molecule: O=C1CCN(Cc2ccccc2)CCN1[C@H](CSc1ccccc1)c1ccccc1
Ans: false (0)

Q: Kindly provide the recorded test outcome for the following molecule: O=C(CN1CCN(c2ccccn2)CC1)N1CCc2ccccc21
Ans: true (1)

Q: Kindly provide the recorded test outcome for the following molecule: c1ccc(CN2CCC(N=C3NN=C(c4ccc5c(c4)OCCO5)CS3)CC2)cc1
Ans: true (1)
